test: protein stability index of a GFP-peptide fusion (yeast GPS) (PSI 1-4); higher = more stable; sorted into four equal gates, so the index is relative within each strain; details: pdr5∆
Lab note: anything with protein stability index at or over 3 counts as Satisfied; the rest go in Not satisfied.

Past entries and their recorded results:
| biopolymer-sequence | discrete-label |
| --- | --- |
| VREFLEKNYDRKEPPAT [PRE6] | Satisfied |
| ARYVIATSTKVSVEGVN [RPL6A] | Not satisfied |
| TNSVRLFEVNPSQTLFS [SRP21] | Not satisfied |
| RPNLPTHNFKLSGVSNS [RGR1] | Not satisfied |
| GAQFSRSYDLTRHQNTI [RPN4] | Not satisfied |

Prompt: Hi, just wondering whether TSVENEGPVANLKDYEL [REC8] shows protein stability index of 3 or higher.
Response: Satisfied

Prompt: Hi, just wondering whether TRYMFQRDFRKHGAVHL [RPL21A] shows protein stability index of 3 or higher.
Response: Not satisfied

Prompt: Hi, just wondering whether GSKQADRMAKYLHIRDK [PGD1] shows protein stability index of 3 or higher.
Response: Satisfied

====

Listed here are sequences together with their documented protein stability index.
test: protein stability index of a GFP-peptide fusion (yeast GPS) (PSI 1-4); higher = more stable; sorted into four equal gates, so the index is relative within each strain; details: ubr1∆

Completed entries (count: 2):
| biopolymer-sequence | protein stability index |
| --- | --- |
| ISPDPNLSIDEVAVPDR [RPO31] | 2.95 |
| LGRDYPIEVDEELLQLF [IRR1] | 1.81 |

Please find the next sequence below.
Prompt: Which measured protein stability index value corresponds to KDTIVKEAEDKTLVALE [RPC37] ?
Response: 3.18

====

assay: protein stability index of a GFP-peptide fusion (yeast GPS) (PSI 1-4); higher = more stable; sorted into four equal gates, so the index is relative within each strain; conditions: doa10∆
value-type: protein stability index
Hey, just send me the number, nothing else.

Completed entries (count: 5):
| biopolymer-sequence | protein stability index |
| --- | --- |
| NKLTGKQIVFEIPSETH [RPS7A] | 3 |
| QDDDFPLDDAGTIGWDL [MCD1] | 3.04 |
| WNLLRSLYIFFTTLLES [YML103C/NUP188] | 2.08 |
| AVSTIASISLAIGYPTL [RPP0] | 1.92 |
| LAMEAILNELEVFIGRV [YJR042W/NUP85] | 2.59 |

Please find the next sequence below.
Prompt: Which measured protein stability index value corresponds to YVESDEDDTQIVTGNLV [IRR1] ?
Response: 3.47

====

assay: protein stability index of a GFP-peptide fusion (yeast GPS) (PSI 1-4); higher = more stable; sorted into four equal gates, so the index is relative within each strain; conditions: ubr1∆
Response field class: string, computed from recorded protein stability index by ranges 1: < 2; 2: ≥ 2 and < 3; 3: ≥ 3

Prompt: Which protein stability index band matches NYPQLTEDILKEISTRV [YCS4] ?
Response: 3

Prompt: Which protein stability index band matches LEEQQQLEDESSRLEFV [YML103C/NUP188] ?
Response: 3

Prompt: Which protein stability index band matches VLIKKGQSAGKLAAIVE [RPL14A] ?
Response: 2

Prompt: Which protein stability index band matches NAANVPVENIWADIFAK [RPP1A] ?
Response: 2

Prompt: Which protein stability index band matches DFYTRHHFTCEITGTSC [ITC1] ?
Response: 1

Prompt: Which protein stability index band matches AQNVPMNIIQQQQQQNT [GAL11] ?
Response: 2

Prompt: Which protein stability index band matches FLKKLRNEQVTIELKNG [SMD1] ?
Response: 2

Prompt: Which protein stability index band matches IIQPFLDNSKMDYHFIF [RGR1] ?
Response: 2

Prompt: Which protein stability index band matches IGTKRFDSEKSGDREVQ [RPT5] ?
Response: 3

Prompt: Which protein stability index band matches GGKSVGFGLVYNSVAEA [RPS24A] ?
Response: 2

Prompt: Which protein stability index band matches ENPDLSTKKKILGIHTS [RPT2] ?
Response: 2

Prompt: Which protein stability index band matches ITLALADAGIELVDMAG [MTR3] ?
Response: 2

Prompt: Which protein stability index band matches YTKETYQSRGIDAMKAV [RPN6] ?
Response: 2
